Each recorded value in this set is attributed to paper PMC3480357.

Biological target: FLT3 (Homo sapiens)
Construct: purchased Invitrogen PV3182
Assay: FLT3 kinase ADP Hunter Plus assay
Format: biochemical
readout kind: IC50 (nM)
Numbers only; they are read as nM.

Given the entry CN1CCC(CNc2ccc3ncc(-c4cccc(OC(F)(F)F)c4)n3n2)CC1 [Compound 3, reference compound] , report its measured IC50.
5

---

Experiment: PAMPA passive diffusion
Assay type: in vitro ADME
Details: PAMPA, LC/MS/MS after 4 hours of incubation at 2 µM; read-out: PAMPA Pe
Description: Therefore, to obtain more detailed information on this critical point, preliminary in vitro ADME profiling was performed for molecule 3. This profiling was mainly focused on hERG activity and on pharmacokinetics parameters, such as metabolic stability and PAMPA (an in vitro model for passive diffusion).
readout kind: Papp at 4 h, 2 µM (×10⁻⁶ cm/s)
Numbers only; they are read as ×10⁻⁶ cm/s.

Given the entry CN1CCC(CNc2ccc3ncc(-c4cccc(OC(F)(F)F)c4)n3n2)CC1 [Compound 3, reference compound] , report its measured Papp at 4 h, 2 µM.
0.0015

---

Biological target: UniProtKB Q86V86
Experiment: PIM-3 kinase ADP Hunter Plus assay
Assay type: biochemical
Details: 100 µM ATP
readout kind: IC50 (nM)
Numbers only; they are read as nM.

Use the examples below as a reference point.
• Oc1ccc(-n2nnc3ccc(NCc4ccc(F)cc4)nc32)cc1 = 51
• CN1CCC(CNc2ccc3nnn(-c4cccc(OC(F)(F)F)c4)c3n2)CC1 = 724

Given the entry CN1CCC(CNc2ccc3ncc(-c4cccc(OC(F)(F)F)c4)n3n2)CC1 [Compound 3, reference compound] , report its measured IC50.
46

---

Molecular target: PIM-3 (Homo sapiens, UniProt Q86V86)
Assay: PIM-3 kinase ADP Hunter Plus assay
Format: biochemical
Settings: 100 µM ATP, Figure 1
readout kind: IC50 (nM)
Numbers only; they are read as nM.

Given the entry CC(=O)c1cccc(-c2cnc3ccc(NCC4CC4)nn23)c1 [Compound 2, reference compound] , report its measured IC50.
1000

---

Target: hERG (Homo sapiens, UniProt Q12809)
Sequence (Q12809 whole entry): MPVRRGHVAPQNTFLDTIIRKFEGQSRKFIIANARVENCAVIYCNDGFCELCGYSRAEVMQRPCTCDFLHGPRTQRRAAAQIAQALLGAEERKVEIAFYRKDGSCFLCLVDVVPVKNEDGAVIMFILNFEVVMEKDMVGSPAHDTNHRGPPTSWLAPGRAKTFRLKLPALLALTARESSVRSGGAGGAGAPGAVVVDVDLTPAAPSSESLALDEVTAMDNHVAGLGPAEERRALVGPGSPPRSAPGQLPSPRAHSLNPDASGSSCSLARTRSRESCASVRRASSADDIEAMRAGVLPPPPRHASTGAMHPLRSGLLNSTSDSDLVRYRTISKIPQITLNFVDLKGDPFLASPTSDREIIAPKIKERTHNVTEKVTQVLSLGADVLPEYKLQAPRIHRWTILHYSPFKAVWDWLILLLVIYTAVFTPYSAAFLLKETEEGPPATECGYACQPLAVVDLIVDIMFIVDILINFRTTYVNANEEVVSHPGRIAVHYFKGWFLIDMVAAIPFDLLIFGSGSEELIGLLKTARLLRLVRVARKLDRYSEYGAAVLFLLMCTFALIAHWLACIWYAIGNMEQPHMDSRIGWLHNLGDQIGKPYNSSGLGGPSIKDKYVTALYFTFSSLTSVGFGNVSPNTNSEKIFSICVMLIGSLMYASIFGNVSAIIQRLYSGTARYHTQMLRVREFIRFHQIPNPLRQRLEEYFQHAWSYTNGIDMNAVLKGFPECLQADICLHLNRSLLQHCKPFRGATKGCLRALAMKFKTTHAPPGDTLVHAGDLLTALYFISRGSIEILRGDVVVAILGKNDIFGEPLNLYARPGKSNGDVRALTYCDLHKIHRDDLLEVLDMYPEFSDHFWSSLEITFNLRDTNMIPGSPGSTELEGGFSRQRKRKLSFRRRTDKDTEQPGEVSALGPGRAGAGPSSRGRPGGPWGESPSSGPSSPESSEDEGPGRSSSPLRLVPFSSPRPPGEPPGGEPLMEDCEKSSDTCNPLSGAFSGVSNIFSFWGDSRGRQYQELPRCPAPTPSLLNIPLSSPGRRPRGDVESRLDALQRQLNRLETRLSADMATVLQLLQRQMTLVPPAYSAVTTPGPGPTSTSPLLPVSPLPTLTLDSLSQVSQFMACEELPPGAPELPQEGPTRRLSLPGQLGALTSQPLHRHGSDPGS
readout kind: IC50 (µM)
Numbers only; they are read as µM.

Identify the measured IC50 of CN1CCC(CNc2ccc3nnn(-c4cccc(OC(F)(F)F)c4)c3n2)CC1 [Compound 8] for hERG (Homo sapiens, UniProt Q12809).
5.4

---

Molecular target: PIM-2 (Homo sapiens)
Sequence (Q9P1W9 whole entry): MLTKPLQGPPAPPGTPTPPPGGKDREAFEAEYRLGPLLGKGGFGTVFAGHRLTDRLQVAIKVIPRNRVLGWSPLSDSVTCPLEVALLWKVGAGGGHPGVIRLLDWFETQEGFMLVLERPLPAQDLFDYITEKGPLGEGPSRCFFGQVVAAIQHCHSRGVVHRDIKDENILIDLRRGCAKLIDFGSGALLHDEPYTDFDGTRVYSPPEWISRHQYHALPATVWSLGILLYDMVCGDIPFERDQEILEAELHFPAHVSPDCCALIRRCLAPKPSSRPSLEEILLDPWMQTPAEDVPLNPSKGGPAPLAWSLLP
Assay: PIM-2 kinase ADP Hunter Plus assay
Format: biochemical
Details: 100 µM ATP
# key: entry, value: IC50
Numbers only; they are read as nM.

* CC(=O)c1cccc(-c2cnc3ccc(NCC4CC4)nn23)c1 [Compound 2, reference compound] | 443
* CN1CCC(CNc2ccc3nnn(-c4cccc(OC(F)(F)F)c4)c3n2)CC1 | 4950

The record that follows has no IC50 shown yet.
Given the entry Oc1ccc(-n2nnc3ccc(NCc4ccc(F)cc4)nc32)cc1 , report its measured IC50.
333

---

Target: FLT3 (Homo sapiens)
Construct: purchased Invitrogen PV3182
Sequence (P36888 564-993 limits assumed): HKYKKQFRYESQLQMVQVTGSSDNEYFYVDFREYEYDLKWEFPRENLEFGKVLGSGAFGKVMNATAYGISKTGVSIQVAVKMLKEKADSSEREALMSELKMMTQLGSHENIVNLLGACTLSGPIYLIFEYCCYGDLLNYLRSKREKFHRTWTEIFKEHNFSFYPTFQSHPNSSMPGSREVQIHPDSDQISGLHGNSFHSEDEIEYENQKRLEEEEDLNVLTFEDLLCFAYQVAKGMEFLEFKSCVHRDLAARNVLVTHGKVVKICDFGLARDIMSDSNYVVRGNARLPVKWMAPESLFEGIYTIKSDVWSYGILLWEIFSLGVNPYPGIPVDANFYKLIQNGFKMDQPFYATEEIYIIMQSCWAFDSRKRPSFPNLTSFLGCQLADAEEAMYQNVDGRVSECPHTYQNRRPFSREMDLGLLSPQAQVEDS
Assay: FLT3 kinase ADP Hunter Plus assay
Format: biochemical
Details: ADP Hunter Plus, 100 µM ATP; read-out: FLT-3 IC50
readout kind: pIC50
Bear in mind: pIC50 is minus log10 of a mol/L concentration; give just that figure.

* Oc1ccc(-c2cnc3ccc(NCc4ccc(F)cc4)nn23)cc1 [Compound 1] | 9.00

Given the entry CN1CCC(CNc2ccc3nnn(-c4cccc(OC(F)(F)F)c4)c3n2)CC1 [Compound 8] , report its measured pIC50.
5.88

Given the entry Oc1ccc(-n2nnc3ccc(NCc4ccc(F)cc4)nc32)cc1 [Compound 7] , report its measured pIC50.
5.74
